Source of measurements: paper PMC11931385

- study-target: T1, Rb^P T687I (human, UniProt P06400 380-788, T687I)
- T1 construct: also called variant 59
- T1 sequence (looked up): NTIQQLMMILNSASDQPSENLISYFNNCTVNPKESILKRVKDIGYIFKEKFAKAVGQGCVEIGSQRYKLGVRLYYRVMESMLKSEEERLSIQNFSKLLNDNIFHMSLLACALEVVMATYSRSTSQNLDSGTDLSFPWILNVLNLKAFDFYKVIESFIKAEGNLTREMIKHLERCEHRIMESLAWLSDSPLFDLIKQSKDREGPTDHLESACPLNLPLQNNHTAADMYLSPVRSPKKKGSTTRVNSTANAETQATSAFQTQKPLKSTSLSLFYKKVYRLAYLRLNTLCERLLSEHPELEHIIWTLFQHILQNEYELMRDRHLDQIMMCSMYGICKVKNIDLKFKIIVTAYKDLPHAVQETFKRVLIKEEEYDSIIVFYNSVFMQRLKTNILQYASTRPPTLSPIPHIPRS
- procedure-text: fluorescence polarisation; 25 °C; unlabeled Rb^P titrated against 1.5 nM TMR-E2F1^TD or 7.5 nM TMR-E7^LxCxE; 25 mM Tris pH 8.0, 200 mM NaCl, 1 mM DTT, 0.1% Tween-20; 2 min incubation; quadratic fit; apparent Kd for the variants, Kd for WT
- particulars: both partners purified
No end group written: not given here. TMR = tetramethyl rhodamine dye

binder: DLYCYEQLN (also: TMR label, position not given here, source: synthetic peptide, bought: GenScript) [TMR-E7^LxCxE, LxCxE peptide of the E7 oncoprotein from HPV]
Kd: 0.013 µM
--
binder: {TMR}-GEGIRDLFDCDFGDLTPLD (also called E2F^TD; source: synthetic peptide, bought: GenScript) [TMR-E2F1^TD, peptide of the E2F1 transactivation domain]
Kd: 0.02 µM
